# Target System: R190/K192 FPR (Homo sapiens, UniProt P21462, N192K)
# Sequence (P21462 whole entry N192K, looked up): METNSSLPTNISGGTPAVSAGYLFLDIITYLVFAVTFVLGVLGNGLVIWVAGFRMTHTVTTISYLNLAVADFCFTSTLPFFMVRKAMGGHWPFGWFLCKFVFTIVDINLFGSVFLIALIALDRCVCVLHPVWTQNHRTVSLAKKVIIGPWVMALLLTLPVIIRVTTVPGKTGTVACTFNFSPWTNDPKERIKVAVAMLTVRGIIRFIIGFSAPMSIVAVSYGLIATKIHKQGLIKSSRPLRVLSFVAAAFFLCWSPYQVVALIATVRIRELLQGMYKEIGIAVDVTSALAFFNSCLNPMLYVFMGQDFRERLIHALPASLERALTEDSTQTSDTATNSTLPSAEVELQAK
# Assay Explanation: biochemical
Residues, ends and D or L forms follow the SMILES beside them.
Reported Metric: Ki

Examples with their reported Ki follow.
Compound: CC(C)C[C@H](NC(=O)[C@@H](N)CCCCN)C(=O)N[C@@H](CC(N)=O)C(=O)N[C@@H](CO)C(=O)N[C@@H](Cc1c[nH]c2ccccc12)C(=O)N[C@@H](CC(=O)O)C(=O)N[C@H](C(=O)N[C@@H](Cc1ccccc1)C(=O)NCC(=O)N[C@@H](CC(N)=O)C(=O)N[C@@H](Cc1c[nH]c2ccccc12)C(=O)N[C@@H](Cc1ccccc1)C(=O)O)C(C)C
Target System: R190/K192 FPR (Homo sapiens, UniProt P21462, N192K)
Ki: 9.5 µM
//
Compound: CC(C)C[C@H](NC(=O)[C@H](CO)NC(=O)[C@H](C)NC(=O)[C@H](Cc1c[nH]c2ccccc12)NC(=O)[C@H](CCCCN)NC(=O)[C@H](CC(=O)O)NC(=O)[C@H](CC(C)C)NC(=O)[C@@H](N)CCC(=O)O)C(=O)N[C@@H](Cc1c[nH]c2ccccc12)C(=O)N[C@@H](CC(N)=O)C(=O)N[C@@H](Cc1c[nH]c2ccccc12)C(=O)N[C@@H](Cc1ccccc1)C(=O)O (H-ELDKWASLWNWF-OH)
Target System: R190/K192 FPR (Homo sapiens, UniProt P21462, N192K)
Ki: 0.94 µM

In: Please tell me: Ki of CC[C@H](C)[C@H](NC(=O)[C@H](Cc1ccc(O)cc1)NC(=O)[C@@H](NC(=O)[C@@H](N)CCC(=O)O)[C@@H](C)O)C(=O)N[C@@H](CCCCN)C(=O)N[C@@H](Cc1c[nH]c2ccccc12)C(=O)N1CCC[C@H]1C(=O)O [ETYIKWP] (H-ETYIKWP-OH) , system R190/K192 FPR (Homo sapiens, UniProt P21462, N192K)?
Out: > 260 µM

In: # query: Ki | item CSCC[C@H](N)C(=O)N[C@@H](Cc1ccc(O)cc1)C(=O)N[C@H](C(=O)N[C@@H](CCCCN)C(=O)N[C@@H](Cc1c[nH]c2ccccc12)C(=O)N1CCC[C@H]1C(=O)N[C@@H](Cc1c[nH]c2ccccc12)C(=O)N[C@@H](Cc1ccc(O)cc1)C(=O)N[C@H](C(=O)N[C@@H](Cc1c[nH]c2ccccc12)C(=O)N[C@@H](CC(C)C)C(=O)O)C(C)C)C(C)C (H-MYVKWPWYVWL-OH) | system: R190/K192 FPR (Homo sapiens, UniProt P21462, N192K)
Out: 0.837 µM

In: Provide the documented Ki with R190/K192 FPR (Homo sapiens, UniProt P21462, N192K) as the system for CC(C)C[C@H](NC(=O)[C@H](Cc1c[nH]c2ccccc12)NC(=O)[C@@H](NC(=O)[C@H](Cc1c[nH]c2ccccc12)NC(=O)[C@@H](N)Cc1c[nH]c2ccccc12)C(C)C)C(=O)O [WWVWL] (H-WWVWL-OH)
Out: ~1.4 µM

====

Entries annotated with measured Ki
# Target System: R190/N192 FPR (Homo sapiens)
# Sequence (P21462 whole entry, looked up): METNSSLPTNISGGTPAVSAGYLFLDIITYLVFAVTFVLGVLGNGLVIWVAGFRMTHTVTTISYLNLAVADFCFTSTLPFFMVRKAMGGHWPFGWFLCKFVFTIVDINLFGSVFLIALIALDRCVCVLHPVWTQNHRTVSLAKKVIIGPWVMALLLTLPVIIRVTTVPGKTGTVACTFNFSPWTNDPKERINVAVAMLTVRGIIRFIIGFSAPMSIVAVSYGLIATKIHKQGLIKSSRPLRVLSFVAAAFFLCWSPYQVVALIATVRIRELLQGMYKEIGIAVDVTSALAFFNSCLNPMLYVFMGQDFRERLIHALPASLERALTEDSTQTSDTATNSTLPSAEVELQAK
# Assay Explanation: biochemical
Residues, ends and D or L forms follow the SMILES beside them.
// note: answer is a bare numeric in nM

Compound: CSCC[C@H](N)C(=O)N[C@@H](Cc1ccc(O)cc1)C(=O)N[C@H](C(=O)N[C@@H](CCCCN)C(=O)N[C@@H](Cc1c[nH]c2ccccc12)C(=O)N1CCC[C@H]1C(=O)N[C@@H](Cc1c[nH]c2ccccc12)C(=O)N[C@@H](Cc1ccc(O)cc1)C(=O)N[C@H](C(=O)N[C@@H](Cc1c[nH]c2ccccc12)C(=O)N[C@@H](CC(C)C)C(=O)O)C(C)C)C(C)C (H-MYVKWPWYVWL-OH)
Ki [nM]: 783

Turning to the following compound.
In: Dear colleague, I am looking for the recorded Ki of the following compound: CC(C)C[C@H](NC(=O)[C@H](CO)NC(=O)[C@H](C)NC(=O)[C@H](Cc1c[nH]c2ccccc12)NC(=O)[C@H](CCCCN)NC(=O)[C@H](CC(=O)O)NC(=O)[C@H](CC(C)C)NC(=O)[C@@H](N)CCC(=O)O)C(=O)N[C@@H](Cc1c[nH]c2ccccc12)C(=O)N[C@@H](CC(N)=O)C(=O)N[C@@H](Cc1c[nH]c2ccccc12)C(=O)N[C@@H](Cc1ccccc1)C(=O)O (H-ELDKWASLWNWF-OH)
Out: 1200
